// values below are reported inhibition at 100 µM
- Experimental target: angiotensin II receptor subtype 2 (AT2) (Bos taurus, UniProt G5E6F7)
- Construct: receptor : from cerebellar cortex in bovine; from tissue; host or cells: bovine cerebellar cortex
- Sequence (G5E6F7 1-362): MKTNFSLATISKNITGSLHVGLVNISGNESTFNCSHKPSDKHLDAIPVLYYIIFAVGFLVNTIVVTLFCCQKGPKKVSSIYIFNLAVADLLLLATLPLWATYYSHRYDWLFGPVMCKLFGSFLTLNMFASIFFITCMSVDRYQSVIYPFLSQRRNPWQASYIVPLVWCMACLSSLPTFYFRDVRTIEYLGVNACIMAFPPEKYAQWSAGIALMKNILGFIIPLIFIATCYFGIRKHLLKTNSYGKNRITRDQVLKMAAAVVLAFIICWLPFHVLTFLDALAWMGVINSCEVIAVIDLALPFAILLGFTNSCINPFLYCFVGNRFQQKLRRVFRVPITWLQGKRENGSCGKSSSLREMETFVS
- Measurement description: Binding to receptors: angiotensin II receptor subtype 2 (AT2)
- Setup conditions: bovine cerebellar cortex, tracer 125I-Tyr4-angiotensin II
# number only, unit % dropped from output

- Compound: "CCCCCCC(=O)N(Cc1ccc(C(=O)O)cc1)c1cc(C(=O)N2CCN(C)CC2)ccc1N(C)C"
  Unit spec: "%"
  inhibition at 100 µM: 0
- Compound: "CCCCC(=O)N(Cc1ccc(C(=O)OCCCN(C)C)cc1)c1cc(C(=O)N2CCOCC2)ccc1C(C)C"
  Unit spec: "%"
  inhibition at 100 µM: 0
- Compound: "CCCCC(=O)N(Cc1ccc(C(=O)OCCCN)cc1)c1cc(C(=O)N2CCOCC2)ccc1N(C)C"
  Unit spec: "%"
  inhibition at 100 µM: 0
- Compound: "CCCCC(=O)N(Cc1ccc(C(=O)O)cc1)c1cc(C(=O)N(CC)CCN(CC)CC)ccc1C(C)C"
  Unit spec: "%"
  inhibition at 100 µM: 23

Now for a further compound.
Please tell me: inhibition at 100 µM of CCCCC(=O)N(Cc1ccc(C(=O)OCCN2CCOCC2)cc1)c1cc(C(=O)N2CCOCC2)ccc1C(C)C , system angiotensin II receptor subtype 2 (AT2) (Bos taurus, UniProt G5E6F7)?
0
